Test system: HeLa Kyoto
experimental-details: solubility in G1/S (NP-40 vs SDS abundance) (log2 ratio); higher = more soluble
experimental-setup: cell cycle stage: G1/S
Entries and their solubility in G1/S (log2) values follow.
// return a plain number; no unit text

MSESFDCAKCNESLYGRKYIQTDSGPYCVPCYDNTFANTCAECQQLIGHDSRELFYEDRHFHEGCFRCCRCQRSLADEPFTCQDSELLCNDCYCSAFSSQCSACGETVMPGSRKLEYGGQTWHEHCFLCSGCEQPLGSRSFVPDKGAHYCVPCYENKFAPRCARCSKTLTQGGVTYRDQPWHRECLVCTGCQTPLAGQQFTSRDEDPYCVACFGELFAPKCSSCKRPIVGLGGGKYVSFEDRHWHHNCFSCARCSTSLVGQGFVPDGDQVLCQGCSQAGP [FHL3]; -0.281

Turning to the following sequence.
Exam item: Tell me its solubility in G1/S (log2) given MSQGDSNPAAIPHAAEDIQGDDRWMSQHNRFVLDCKDKEPDVLFVGDSMVQLMQQYEIWRELFSPLHALNFGIGGDTTRHVLWRLKNGELENIKPKVIVVWVGTNNHENTAEEVAGGIEAIVQLINTRQPQAKIIVLGLLPRGEKPNPLRQKNAKVNQLLKVSLPKLANVQLLDTDGGFVHSDGAISCHDMFDFLHLTGGGYAKICKPLHELIMQLLEETPEEKQTTIA [PAFAH1B2] as the entry.
Marked response: 0.628

---

Test system: HeLa Kyoto
experimental-details: melting temperature (median over replicates), in situ; higher = more thermally stable
experimental-setup: cell cycle stage: mitosis
Items are presented alongside their recorded melting temperature.

Please review the entries below; each comes with its answer.
MLLKEYRICMPLTVDEYKIGQLYMISKHSHEQSDRGEGVEVVQNEPFEDPHHGNGQFTEKRVYLNSKLPSWARAVVPKIFYVTEKAWNYYPYTITEYTCSFLPKFSIHIETKYEDNKGSNDTIFDNEAKDVEREVCFIDIACDEIPERYYKESEDPKHFKSEKTGRGQLREGWRDSHQPIMCSYKLVTVKFEVWGLQTRVEQFVHKVVRDILLIGHRQAFAWVDEWYDMTMDEVREFERATQEATNKKIGIFPPAISISSIPLLPSSVRSAPSSAPSTPLSTDAPEFLSVPKDRPRKKSAPETLTLPDPEKKATLNLPGMHSSDKPCRPKSE [PITPNC1]; 51.5 °C
MSIMSYNGGAVMAMKGKNCVAIAADRRFGIQAQMVTTDFQKIFPMGDRLYIGLAGLATDVQTVAQRLKFRLNLYELKEGRQIKPYTLMSMVANLLYEKRFGPYYTEPVIAGLDPKTFKPFICSLDLIGCPMVTDDFVVSGTCAEQMYGMCESLWEPNMDPDHLFETISQAMLNAVDRDAVSGMGVIVHIIEKDKITTRTLKARMD [PSMB3]; 62.6 °C

Now turn to the next sequence.
Exam item: Provide the reported melting temperature (system: HeLa Kyoto) for MSATRAKKVKMATKSCPECDQQVPVACKSCPCGYIFISRKLLNAKHSEKSPPSTENKHEAKRRRTERVRREKINSTVNKDLENRKRSRSNSHSDHIRRGRGRPKSASAKKHEEEREKQEKEIDIYANLSDEKAFVFSVALAEINRKIINQRLIL [C16ORF87]
Marked response: 50.6 °C

---

Test system: HeLa Kyoto
experimental-details: solubility in G1/S (NP-40 vs SDS abundance) (log2 ratio); higher = more soluble
experimental-setup: cell cycle stage: G1/S
Class True: solubility in G1/S (log2) at least 0.2. Class False: solubility in G1/S (log2) below 0.2.

Example entries begin here.
MNGFTPDEMSRGGDAAAAVAAVVAAAAAAASAGNGTGAGTGAEVPGAGAVSAAGPPGAAGPGPGQLCCLREDGERCGRAAGNASFSKRIQKSISQKKVKIELDKSARHLYICDYHKNLIQSVRNRRKRKGSDDDGGDSPVQDIDTPEVDLYQLQVNTLRRYKRHFKLPTRPGLNKAQLVEIVGCHFRSIPVNEKDTLTYFIYSVKNDKNKSDLKVDSGVH [SAP30]; True
MTDRYTIHSQLEHLQSKYIGTGHADTTKWEWLVNQHRDSYCSYMGHFDLLNYFAIAENESKARVRFNLMEKMLQPCGPPADKPEEN [SF3B5]; False

Exam item: Please indicate if the recorded solubility in G1/S (log2) for MFSRAGVAGLSAWTLQPQWIQVRNMATLKDITRRLKSIKNIQKITKSMKMVAAAKYARAERELKPARIYGLGSLALYEKADIKGPEDKKKHLLIGVSSDRGLCGAIHSSIAKQMKSEVATLTAAGKEVMLVGIGDKIRGILYRTHSDQFLVAFKEVGRKPPTFGDASVIALELLNSGYEFDEGSIIFNKFRSVISYKTEEKPIFSLNTVASADSMSIYDDIDADVLQNYQEYNLANIIYYSLKESTTSEQSARMTAMDNASKNASEMIDKLTLTFNRTRQAVITKELIEIISGAAALD [ATP5C1] meets or exceeds 0.2.
Marked response: True

Exam item: Reported solubility in G1/S (log2) at or above 0.2? MDPLRAQQLAAELEVEMMADMYNRMTSACHRKCVPPHYKEAELSKGESVCLDRCVSKYLDIHERMGKKLTELSMQDEELMKRVQQSSGPA [TIMM10]
Marked response: False

Exam item: Threshold query (solubility in G1/S (log2) >= 0.2) on MVVSKMNKDAQMRAAINQKLIETGERERLKELLRAKLIECGWKDQLKAHCKEVIKEKGLEHVTVDDLVAEITPKGRALVPDSVKKELLQRIRTFLAQHASL [ENY2]
Marked response: False
